STUDY SYSTEM: Caspase-2 (Homo sapiens, UniProt P42575)
Sequence (P42575 whole entry): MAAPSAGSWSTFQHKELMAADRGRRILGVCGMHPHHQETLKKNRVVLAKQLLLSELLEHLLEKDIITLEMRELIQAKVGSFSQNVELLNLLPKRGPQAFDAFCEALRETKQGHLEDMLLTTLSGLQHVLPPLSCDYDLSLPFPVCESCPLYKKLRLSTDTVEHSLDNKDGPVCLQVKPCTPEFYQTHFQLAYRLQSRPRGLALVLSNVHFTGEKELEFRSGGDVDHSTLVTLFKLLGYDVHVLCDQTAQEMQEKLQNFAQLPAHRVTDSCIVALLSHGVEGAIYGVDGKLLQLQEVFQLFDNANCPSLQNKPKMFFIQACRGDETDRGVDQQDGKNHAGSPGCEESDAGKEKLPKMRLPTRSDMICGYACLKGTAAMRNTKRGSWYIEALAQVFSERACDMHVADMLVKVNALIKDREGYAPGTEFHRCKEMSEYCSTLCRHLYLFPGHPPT
pIC50: −log10 of the molar value.
Each entry below lists one item and its recorded pIC50 value.

[[record]]
record_smiles = "CC(C)(C)[C@@H](NC(=O)c1ccc(N)c(Cl)c1)C(=O)N1CCC[C@H]1C(=O)N[C@H](/C=C/S(C)(=O)=O)CC(=O)O"
measurement_label = "pIC50"
recorded_result = "< 4.00"

[[record]]
record_smiles = "CC[C@H](C)[C@H](NC(=O)[C@H](CCC(N)=O)NC(=O)[C@@H](NC(=O)OCc1ccccc1)C(C)C)C(=O)N[C@H](/C=C/S(C)(=O)=O)CC(=O)O"
measurement_label = "pIC50"
recorded_result = "< 4.00"


Returns the measured pIC50 for the input compound. Input: CC(C)(C)[C@H](NC(=O)[C@H](CC(=O)O)NC(=O)OCc1ccccc1)C(=O)N1CC[C@H]1C(=O)N[C@H](/C=C/S(C)(=O)=O)CC(=O)O
4.88

----------
STUDY SYSTEM: Caspase-6 (Homo sapiens, UniProt P55212)
Sequence (P55212 24-179 limits assumed): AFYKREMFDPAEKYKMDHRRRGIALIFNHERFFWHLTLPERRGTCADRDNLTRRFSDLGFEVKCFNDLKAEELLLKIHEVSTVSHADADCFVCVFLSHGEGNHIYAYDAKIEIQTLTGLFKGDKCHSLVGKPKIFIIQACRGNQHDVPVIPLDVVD
Sequence (P55212 194-293 limits assumed): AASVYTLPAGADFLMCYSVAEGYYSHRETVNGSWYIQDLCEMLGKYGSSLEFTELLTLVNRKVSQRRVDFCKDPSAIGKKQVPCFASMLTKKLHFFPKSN
MEASUREMENT LABEL: IC50 (nM)
Lab book: enter the figure in nM, no units written.

Returns the measured IC50 for the input molecule. Input: CC[C@H](C)[C@H](NC(=O)[C@H](CCC(N)=O)NC(=O)[C@@H](NC(=O)OCc1ccccc1)C(C)C)C(=O)N[C@H](/C=C/S(C)(=O)=O)CC(=O)O
600

----------
STUDY SYSTEM: Caspase-9 (Homo sapiens, UniProt P55211)
Sequence (P55211 whole entry): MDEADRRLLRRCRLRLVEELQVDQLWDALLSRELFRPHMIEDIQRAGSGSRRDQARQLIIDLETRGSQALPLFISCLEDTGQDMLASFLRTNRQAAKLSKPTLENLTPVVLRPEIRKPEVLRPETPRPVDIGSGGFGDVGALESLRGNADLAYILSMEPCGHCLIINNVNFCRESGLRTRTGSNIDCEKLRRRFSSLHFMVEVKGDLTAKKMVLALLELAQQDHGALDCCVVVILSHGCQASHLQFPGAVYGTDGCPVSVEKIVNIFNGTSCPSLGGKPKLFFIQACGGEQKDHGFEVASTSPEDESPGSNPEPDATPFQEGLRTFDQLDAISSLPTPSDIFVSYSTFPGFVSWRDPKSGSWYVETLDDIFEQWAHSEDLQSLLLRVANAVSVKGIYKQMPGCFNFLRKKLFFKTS
MEASUREMENT LABEL: IC50 (nM)

[I] CC[C@H](C)[C@H](NC(=O)[C@H](CCC(N)=O)NC(=O)[C@H](Cc1c[nH]c2ccccc12)NC(=O)OCc1ccccc1)C(=O)N[C@H](/C=C/S(C)(=O)=O)CC(=O)O
[II] CC[C@H](C)[C@H](NC(=O)[C@H](CCC(N)=O)NC(=O)[C@@H](NC(=O)OCc1ccccc1)C(C)C)C(=O)N[C@H](/C=C/S(C)(=O)=O)CC(=O)O
Given I and II , report the one with the higher recorded IC50. Mark your selection by writing its label.
I
